# target_entity: lumazine synthase (RibH) (Mycobacterium tuberculosis, UniProt P9WHE9)
# Sequence (P9WHE9 whole entry): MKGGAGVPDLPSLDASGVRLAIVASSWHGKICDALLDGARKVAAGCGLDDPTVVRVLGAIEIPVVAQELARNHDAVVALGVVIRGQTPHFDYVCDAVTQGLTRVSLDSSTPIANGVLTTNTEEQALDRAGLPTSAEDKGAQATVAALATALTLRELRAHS
# assay: […]; also riboflavin displacement ([…] at […])
# Assay type: binding
measured_metric: Kd (nM)
Kindly answer with a numeric value in nM, unit omitted.

query: Observed Kd on lumazine synthase (RibH) (Mycobacterium tuberculosis, UniProt P9WHE9) for O=C1NC(=Nc2ccc(Cl)cc2)SC1=Cc1ccc([N+](=O)[O-])o1 [A39] , please.
result: 2.3
